tested on: A498 renal; assay: NCI tumour cell line growth inhibition, 48 h
// reported TGI per item

| Compound | Readout Value |
| --- | --- |
| COc1cc2c(c(OC)c1OC)-c1ccc(SC)c(=O)cc1[C@@H](NCc1ccc(F)cc1)CC2 | 0.0265 µM |
| CCOC(=O)C(NC(=O)OCc1ccccc1)C(=O)O (centres undefined) | > 100 µM |
| NS(=O)(=O)c1ccc(NC(=O)N/N=C/c2ccccc2O)cc1 | > 100 µM |

Field: next compound
What does the record list as TGI for Cc1cc2ncn(-c3nc4ccccc4nc3C(C#N)S(C)(=O)=O)c2cc1C (centres undefined) ?
> 100 µM

----------
TGI listing for selected molecules.
tested on: RXF 393 renal; assay: NCI tumour cell line growth inhibition, 48 h

| Molecule | TGI |
| --- | --- |
| O=c1[nH]/c(=C/c2ccc3c(c2)OCO3)c(=O)[nH]/c1=C/c1ccc2c(c1)OCO2 | > 10 µM |

Give its TGI value. Item: N#CC(NNC(=O)Cc1ccccc1)c1cccc(O)c1 (stereo not drawn)
> 100 µM

Which measured TGI value corresponds to CN(C)c1ccc(/C=C/C(=O)c2ccc(O)cc2)cc1 ?
> 100 µM

----------
Here, each record is paired with measured TGI data.
tested on: LOX IMVI melanoma; test: NCI tumour cell line growth inhibition, 48 h

Previously resolved entries follow.
| Compound | Readout Value |
| --- | --- |
| CC(C)[C@@H]1CC[C@@H](C)C[C@H]1OC(=O)c1c2n(c3ccccc13)C[C@H]1OC(C)(C)O[C@@H]21 | > 100 µM |
| COc1ccc(-c2cc(=O)c3c(O)c(OC)c(OC)c(OC)c3o2)cc1OC | > 100 µM |
| Cc1ccc(C(=O)CC2(O)C(=O)Nc3c(C)cc(Cl)cc32)cc1 (stereo unspecified) | > 100 µM |

Identify the measured TGI of CN(C)CCN(C)P12(Oc3ccccc3O1)Oc1c(Cl)c(Cl)c(Cl)c(Cl)c1O2 for LOX IMVI melanoma.
> 100 µM

Checklist item: TGI tested on LOX IMVI melanoma, entry CC(C)N(C(=O)C12C3C4C1C1C2C3C41C#N)C(C)C (stereo unspecified) , value?
> 67.2 µM

Under LOX IMVI melanoma: TGI value of COc1ccc(-n2c(CCC(=O)O)nc3c2C(=O)c2ccccc2C3=O)cc1 ?
> 100 µM

----------
We begin with a simple list: items and their reported GI50.
system: MCF7 breast; assay: NCI tumour cell line growth inhibition, 48 h

Worked set:
| Molecule | GI50 |
| --- | --- |
| CC1CC2C3CCC4=CC(=O)C=CC4(C)C3(F)C(O)CC2(C)C1(O)C(=O)COP(=O)(O)O (configuration not stated) | > 500000 nM |
| NS(=O)(=O)c1ccc(Nc2cc(-c3ccc(O)c(F)c3)[nH]n2)cc1 | > 25000 nM |
| CN(C)c1ccc(/C=C\c2ccnc3ccccc23)cc1 | 328 nM |
| CSc1ccc(C2=C(c3ccccc3)C(=O)OC2)cc1 | 810 nM |
| COc1cc(-c2cc(/C=C/C(=O)c3ccc(F)c(F)c3)[nH]n2)cc(OC)c1OC | 3200 nM |
| CO[C@H]1C[C@@H]2CC[C@@H](C)[C@@](O)(O2)C(=O)C(=O)N2CCCC[C@H]2C(=O)O[C@H]([C@H](C)C[C@@H]2CC[C@@H](OC(=O)C(C)(CO)CO)[C@H](OC)C2)CC(=O)[C@H](C)/C=C(\C)[C@@H](O)[C@@H](OC)C(=O)[C@H](C)C[C@H](C)\C=C/C=C/C=C/1C | 4.22 nM |
| O=C1Nc2ccc(Br)cc2C12CC(c1ccccc1)=NN2 (configuration not stated) | 2480 nM |
| C#Cc1cccc(Nc2ncnc3cc(NC(=O)CCl)ccc23)c1 | 961 nM |

Entry under review: c1cc(N[C@@H]2CCNC2)nc(-c2cnc3ccc(-c4cn[nH]c4)cn23)c1 . Reported GI50?
3310 nM

Request the reported GI50 associated with CCOCC1(COCC)CCC(c2[nH]ncc2CN(C)CCNC)CC1
> 100000 nM

Look at this molecule and give its reported GI50. C[C@@]1([C@H](OC(=O)c2ccccc2)C(N)=O)CO1
32000 nM

Consider the molecule O=C1NC(=NCCc2ccc(F)cc2)S/C1=C\c1ccc2ncccc2c1 and give its measured GI50.
> 23100 nM

----------
system: SF-295 CNS; assay: NCI tumour cell line growth inhibition, 48 h; in the data active = GI50 below about 0.43 µM; inactive = the rest
Mark one answer only. Choices: active, inactive

Per the assay record, what outcome was assigned to COc1ccc(C(O)c2cc3c(N)c(C(=O)Nc4ccc(Cl)cc4)sc3nc2C)cc1 (stereo not drawn) ?
inactive

Which result was noted for this compound in the test: COc1cccc(/C=C/C(=O)c2ccc3cc(OC)ccc3c2)c1
inactive

Hey, what did the test say about COc1cc[c]([Sn]([c]2ccc(OC)cc2)([c]2ccc(OC)cc2)[c]2ccc(OC)cc2)cc1 ?
inactive

Called result for O=C1NC(=S)S/C1=C\c1cn(-c2ccccc2)nc1-c1ccccc1
inactive

Can you look up the reported call for CSC1=NC(=Nc2c(C)cccc2C)C2(CCC(C(C)(C)C)CC2)N1c1ccc(Cl)cc1 (stereo not drawn) for me?
inactive

Please let me know the test result on file for CCOC(=O)c1c(-c2ccccc2)[n+](=O)c2cc(Cl)c(Cl)cc2n1[O-] .
inactive

What call does the record list for O=C1/C(=C/c2ccc(Cl)c(Cl)c2)CN(C(=O)C(Cl)Cl)C/C1=C\c1ccc(Cl)c(Cl)c1 ?
active

Dear all, I need the recorded test outcome for CC(=O)Nc1ccc(C(=O)CCl)cc1 , thank you.
inactive

----------
tested on: UO-31 renal; assay: NCI tumour cell line growth inhibition, 48 h
Attribute Measured: GI50

Example entries and their recorded answers appear below.
| Compound | GI50 |
| --- | --- |
| CC(C)=CCc1cc2c(cc1O)C1=C(C(=O)C3=C(C1=O)S(=O)(=O)CCN3)C(C=C(C)C)O2 (stereo not drawn) | 1.82 µM |
| Oc1ccc(Cl)cc1C(c1cc(Cl)ccc1O)C(Cl)(Cl)Cl | 1.5 µM |

What does the data say about its GI50? Entry: c1cc(N[C@@H]2CCNC2)nc(-c2cnc3ccc(-c4cn[nH]c4)cn23)c1
> 69.3 µM

----------
Measured TGI of individual entries
tested on: T-47D breast; test: NCI tumour cell line growth inhibition, 48 h

| Molecule | TGI |
| --- | --- |
| O=C1CC2OCC=C3CN4CCC56c7ccccc7N1C5C2C3CC46O (configuration not stated) | > 100 µM |
| COc1ccc2c(c1)OC(N)=C(C#N)C2c1cc(OC)c(OC)c(OC)c1 (configuration not stated) | > 100 µM |
| CNC(=O)c1n[nH]n(C2CCCCC2)c1=S | > 100 µM |
| CSc1ncnc2c1cnn2Cc1cnnn1COCC(O)CO (configuration not stated) | > 100 µM |
| CC(=O)CCCCn1c(=O)c2c(nc(Br)n2C)n(C)c1=O | > 100 µM |
| O=C1OC(c2ccccc2)=NC1c1ccccc1 (configuration not stated) | > 100 µM |
| NS(=O)(=O)c1ccc(NC(=O)N/N=C/c2ccccc2O)cc1 | > 100 µM |
| Cc1cccc(C2ON=C(c3ccccc3)N2C23CC4CC(CC(C4)C2)C3)c1 (configuration not stated) | > 10 µM |
| O=C1NC(=NCCc2ccc(F)cc2)S/C1=C\c1ccc2ncccc2c1 | > 25 µM |
| CCCn1c2c(c3ccccc3c1=O)C(=O)c1ccccc1-2 | > 100 µM |

For the molecule COc1ccc(/C=c2\c(=O)[nH]c3nc4ccccc4c(=O)n23)cc1 , what TGI is on record?
> 100 µM

Can you share its TGI? I mean this molecule: O=C1N=C2SC=C(NC(=S)Nc3ccccc3)N2NC12c1ccccc1-c1ccccc12
> 10 µM

----------
Listed here are compounds together with their documented TGI.
tested on: SK-OV-3 ovarian; assay: NCI tumour cell line growth inhibition, 48 h

// worked examples, TGI included
| Compound | Readout Value |
| --- | --- |
| OCC1O[C@H](O[C@@H]2CCCN3CC(O)C(O)[C@@H]23)C(O)C(O)C1O (some centres not stated) | > 100 µM |
| COc1ccc(-c2cc(-c3ccc(Nc4nc(Nc5ccccc5)nc(Nc5ccc(Cl)cc5)n4)cc3)nc(N)n2)cc1 | > 50 µM |
| CS(=O)(=O)N1CC(CCl)c2ccc(NO)cc21 (configuration not stated) | > 31.6 µM |

Field: TGI (SK-OV-3 ovarian). Entry: O=C1Oc2ccccc2C1C/C(=N\Nc1ccccc1)c1ccccc1O (configuration not stated)
> 100 µM

GET /values?readout=TGI&system=SK-OV-3 ovarian&item= S=c1sc2c(s1)SC(c1ccccc1)CS2 (configuration not stated)
> 100 µM

Field: TGI (SK-OV-3 ovarian). Entry: CC(C)(C)OC(=O)NC1CCCC1C(=O)C1=CCCC1 (configuration not stated)
> 100 µM

API: value(readout= TGI, system= SK-OV-3 ovarian, query= Cn1c(CBr)nc2c1C(=O)c1nc(CBr)[nH]c(=O)c1C2=O )
> 100 µM
